Known GI50 of a selection of molecules
Test system: HT29 colon
Assay: NCI tumour cell line growth inhibition, 48 h

CN(C)c1ccc(N)cc1: 3.04 µM
CCS(=O)(=O)c1ccc(OC)c(Nc2ncc(-c3cccc(OC)c3)o2)c1: 10.8 µM
COc1cc(NC(=O)c2cc(O)c(CC=C(C)C)c(O)c2)cc2c1O[C@]1(C)CC[C@@H](O)C(C)(C)[C@H]1C2: 3.47 µM
O=C(CCl)Nc1ccc(Cl)cc1: 2.03 µM
Cc1cc(C)c(C(=O)CC(=O)c2cccnc2)c(C)c1: 4.85 µM

Moving on to another molecule below.
Input: Entry CCN(CC)CCCC(C)Nc1c(C)cnc2cc(Cl)c(C)cc12 (stereo unspecified) has what GI50?
Output: 2.72 µM
